test: folding stability dG unfold from chymotrypsin proteolysis; higher = more stable
The entries below come with measured folding stability dG unfold values attached.
Give the value, in units of kcal/mol, as a plain number.

Some entries whose results are on file:
1) SAGGSAGGSAGGMITVEYDPSRPVYTVTVTDPTTGKTTVIDVPRDDLEQALALAEALLKSAGGSAGGSAGGS [r10_1117_JUSTAS] :: 1.95
2) SAGGSAGGSAKHRVDDIQPQRHKNPDGEKPVRVRFPDNGQEERIPADNLDDIDVSDGMEVEPSAGGSAGGSA [r18_288_TrROS] :: -0.631
3) SAMTPETERKLLEAPKTGDVEAVREAAEEIEKEYPGKGLVVTVTVSPLSDGTWEVEVTVELPPNLPELASAG [r14_690_JUSTAS] :: 0.27

**Q:** I have this sequence here, SAGGSAGGSAGGKTYTADEIKKIKKINGKWYVEIDGKTYEIPAKDIKIKKGDKIKIYPVSAGGSAGGSAGGS [r10_665_TrROS_Hall] , and I need its recorded folding stability dG unfold.
**A:** 1.59
